# key: entry, value: cell count
- Assay Comment: inhibitors of TNFa-induced NFkB p65 translocation, primary screen, imaging, HUVEC, MLSMR starter and 10KST1 sets (AID 438);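 also: compound added about 3h40 before a 20 min TNFalpha stimulation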
- Measurement Context: HUVEC TNFa-induced p65 nuclear translocation; measured here: nuclei count (cytotoxicity indicator), at 2.08 µM
// response body must contain only the number

Solved entries (count: 5):
>  <Compound>
Cc1cnc(NC(=O)C2=C(O)c3ccccc3S(=O)(=O)N2C)s1

>  <Reported Endpoint>
cell count

>  <Recorded Measurement>
640

$$$$
>  <Compound>
CCN(CC)CCOC(=O)C1(C2CCCCC2)CCCCC1

>  <Reported Endpoint>
cell count

>  <Recorded Measurement>
520

$$$$
>  <Compound>
CC(NC(=O)OC(C)(C)C)C(=O)Oc1ccc2ccc(=O)oc2c1 (stereo unspecified)

>  <Reported Endpoint>
cell count

>  <Recorded Measurement>
566

$$$$
>  <Compound>
Cn1c(N2CCOCC2)nc2c1c(=O)n(Cc1ccc(Cl)c(Cl)c1)c(=O)n2C

>  <Reported Endpoint>
cell count

>  <Recorded Measurement>
616

$$$$
>  <Compound>
CCNc1nc(Oc2ccccc2)nc(OC(C)C(=O)OCC)n1 (stereo unspecified)

>  <Reported Endpoint>
cell count

>  <Recorded Measurement>
674

$$$$

Form field: reported cell count of CCOC(=O)c1cc(C)n(Cc2cccc(OC)c2OC)c1C 502

Need cell count of CCOC(=O)CCC(=O)O[C@H]1[C@H](O[C@@H]2[C@@H](C)[C@H](O[C@H]3C[C@@](C)(OC)[C@@H](O)[C@H](C)O3)[C@@H](C)C(=O)O[C@H](CC)[C@@](C)(O)[C@H](O)[C@@H](C)C(=O)[C@H](C)C[C@@]2(C)O)O[C@H](C)C[C@@H]1N(C)C , thanks. 569

# query: cell count of entry CCOC(=O)CCCCC(=O)NC(CO)C(=O)NC (stereo unspecified) 573

###

- Assay Comment: DUSP6 inhibitors restoring Erk phosphorylation by chemical complementation, primary imaging in DUSP6-transfected HeLa (AID 609)
- Measurement Context: HeLa MKP-3 transfected, phospho-Erk imaging KS statistic; measured here: nuclear c-Myc green intensity z-score; at 10 µM; cells stimulated with TPA for 15 min
Reported Endpoint: z-score
// response body must contain only the number

>  <Molecule>
Brc1ccc(-c2cnc3n2CCCC3)cc1

>  <z-score>
2.77

$$$$
>  <Molecule>
COc1cccc(-c2nc(N3CCCCC3)c3ccccc3n2)c1O

>  <z-score>
0.268

$$$$
>  <Molecule>
CCn1cc(C(=O)NCCCN(C)C)c(=O)c2cc(F)c(N3CCN(C)CC3)cc21

>  <z-score>
1.7

$$$$
>  <Molecule>
CCCSc1nc(N2CCCC2)c2c(c1C#N)CC(C)(C)OC2

>  <z-score>
-1.87

$$$$
>  <Molecule>
CC(C)Sc1nc(N2CCCC2)c2c(c1C#N)CC(C)(C)OC2

>  <z-score>
-1.33

$$$$
>  <Molecule>
CCOC(=O)CSc1nc(-c2ccncc2)ccc1C#N

>  <z-score>
-0.434

$$$$
>  <Molecule>
CCOC(=O)C1=C(C)N=C2SC(C)C(=O)N2C1c1cccc(F)c1 (stereo unspecified)

>  <z-score>
0.668

$$$$
>  <Molecule>
NCc1ccc(S(N)(=O)=O)cc1

>  <z-score>
-0.356

$$$$
>  <Molecule>
CCC(=O)N[C@@H]1CC(C(C)(C)NC(=O)CC)CC=C1C (stereo partly specified)

>  <z-score>
0.526

$$$$
>  <Molecule>
CCCOc1ccc(N2C(=O)CC(N(CCC)C(=O)CCC(=O)O)C2=O)cc1 (stereo unspecified)

>  <z-score>
-0.331

$$$$

# input for lookup
I'd like to know its z-score. The molecule in question is COc1ccccc1OCC(=O)Nc1ccc(S(=O)(=O)Nc2cc(C)nc(C)n2)cc1 1.18
